system: TBEV strains Neudoerfl and Hypr; assay: microbe, parasite or virus in culture; type: cell-based, tick-borne encephalitis virus; settings: Tick-borne encephalitis virus, 48 h, read-out: EC50
value_type: EC50

input_smiles=COc1ccc2cc3[n+](cc2c1OC)CCc1cc2c(cc1-3)OCO2 result="1200 to 2900 nM"
input_smiles=NCCOc1cc(C(=O)Nc2cc(OCCN)c3ccccc3n2)nc(C(=O)Nc2cc(OCCN)c3ccccc3n2)c1 result="1200 to 2900 nM"

* * *

tested on: TBEV strain Hypr
value_type: SI (CC50/EC50)

compound="CCC1=C(C)c2cc3[nH]c(cc4nc(cc5c(CCC(=O)O)c(C)c(cc1n2)n5C)C(CCC(=O)O)=C4C)c(C)c3CC [NMM, N-Methylmesoporphyrin IX]" system_name="TBEV strain Hypr" value_type="SI (CC50/EC50)" result=">2 500"
compound="CN(C)c1ccc(Nc2c3ccc(NC(=O)CCN4CCCC4)cc3nc3cc(NC(=O)CCN4CCCC4)ccc23)cc1 [BRACO-19]" system_name="TBEV strain Hypr" value_type="SI (CC50/EC50)" result=>1
compound="C[n+]1cc(NC(=O)c2ccc3ccc4ccc(C(=O)Nc5cc6ccccc6[n+](C)c5)nc4c3n2)cc2ccccc21 [PhenDC3]" system_name="TBEV strain Hypr" value_type="SI (CC50/EC50)" result=>8.08
compound="NCCOc1cc(NC(=O)c2cc(OCc3cn(CCC(=O)O)nn3)cc(C(=O)Nc3cc(OCCN)c4ccccc4n3)n2)nc2ccccc12 [cPDS, Carboxy pyridostatin]" system_name="TBEV strain Hypr" value_type="SI (CC50/EC50)" result=>9.05
compound="O=C1c2cccc(O)c2C(=O)c2c(O)cc(CO)cc21 [Aloe emodin, aloe-emodin]" system_name="TBEV strain Hypr" value_type="SI (CC50/EC50)" result=>1
